- test-target: Mast/stem cell growth factor receptor Kit [1-973] (Homo sapiens, UniProt P10721)
- Sequence (P10721 1-973): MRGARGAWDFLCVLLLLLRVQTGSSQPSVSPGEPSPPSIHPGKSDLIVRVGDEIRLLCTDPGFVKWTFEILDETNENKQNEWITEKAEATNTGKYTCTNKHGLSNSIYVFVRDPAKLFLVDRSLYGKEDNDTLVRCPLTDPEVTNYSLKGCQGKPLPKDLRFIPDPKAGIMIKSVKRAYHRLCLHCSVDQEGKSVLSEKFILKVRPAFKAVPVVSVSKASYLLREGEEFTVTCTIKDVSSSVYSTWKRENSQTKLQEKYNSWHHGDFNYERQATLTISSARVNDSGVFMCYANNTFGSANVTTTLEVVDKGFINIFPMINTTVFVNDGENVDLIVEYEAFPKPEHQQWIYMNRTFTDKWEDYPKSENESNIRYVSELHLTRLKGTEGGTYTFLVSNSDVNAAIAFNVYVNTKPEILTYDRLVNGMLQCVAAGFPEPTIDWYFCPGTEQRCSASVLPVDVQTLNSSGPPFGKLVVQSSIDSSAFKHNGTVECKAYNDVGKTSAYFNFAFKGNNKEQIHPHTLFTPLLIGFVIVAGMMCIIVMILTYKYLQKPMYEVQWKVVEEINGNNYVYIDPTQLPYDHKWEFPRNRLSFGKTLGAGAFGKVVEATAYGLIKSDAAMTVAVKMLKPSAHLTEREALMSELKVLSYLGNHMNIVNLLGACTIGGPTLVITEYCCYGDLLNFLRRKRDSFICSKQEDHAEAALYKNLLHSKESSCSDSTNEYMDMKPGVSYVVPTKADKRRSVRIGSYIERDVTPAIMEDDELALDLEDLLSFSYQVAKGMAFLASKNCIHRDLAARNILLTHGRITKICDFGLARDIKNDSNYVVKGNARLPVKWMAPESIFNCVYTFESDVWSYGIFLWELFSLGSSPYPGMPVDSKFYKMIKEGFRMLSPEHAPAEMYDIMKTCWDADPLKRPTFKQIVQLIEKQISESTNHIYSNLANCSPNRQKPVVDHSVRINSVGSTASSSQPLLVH
measured-quantity: IC50 (nM)
Provide the reading as a plain figure in nM.

**Query** Tell me the measured IC50 of COc1cc2c(Oc3ccc(N=Cc4c(C)[nH]n(-c5ccccc5C(F)(F)F)c4=O)cc3F)ccnc2cc1OCCCN1CCOCC1 , please.
**Result** 2.3

====

- test-target: Vascular endothelial growth factor receptor 2 (Homo sapiens)
- Sequence (P35968 whole entry): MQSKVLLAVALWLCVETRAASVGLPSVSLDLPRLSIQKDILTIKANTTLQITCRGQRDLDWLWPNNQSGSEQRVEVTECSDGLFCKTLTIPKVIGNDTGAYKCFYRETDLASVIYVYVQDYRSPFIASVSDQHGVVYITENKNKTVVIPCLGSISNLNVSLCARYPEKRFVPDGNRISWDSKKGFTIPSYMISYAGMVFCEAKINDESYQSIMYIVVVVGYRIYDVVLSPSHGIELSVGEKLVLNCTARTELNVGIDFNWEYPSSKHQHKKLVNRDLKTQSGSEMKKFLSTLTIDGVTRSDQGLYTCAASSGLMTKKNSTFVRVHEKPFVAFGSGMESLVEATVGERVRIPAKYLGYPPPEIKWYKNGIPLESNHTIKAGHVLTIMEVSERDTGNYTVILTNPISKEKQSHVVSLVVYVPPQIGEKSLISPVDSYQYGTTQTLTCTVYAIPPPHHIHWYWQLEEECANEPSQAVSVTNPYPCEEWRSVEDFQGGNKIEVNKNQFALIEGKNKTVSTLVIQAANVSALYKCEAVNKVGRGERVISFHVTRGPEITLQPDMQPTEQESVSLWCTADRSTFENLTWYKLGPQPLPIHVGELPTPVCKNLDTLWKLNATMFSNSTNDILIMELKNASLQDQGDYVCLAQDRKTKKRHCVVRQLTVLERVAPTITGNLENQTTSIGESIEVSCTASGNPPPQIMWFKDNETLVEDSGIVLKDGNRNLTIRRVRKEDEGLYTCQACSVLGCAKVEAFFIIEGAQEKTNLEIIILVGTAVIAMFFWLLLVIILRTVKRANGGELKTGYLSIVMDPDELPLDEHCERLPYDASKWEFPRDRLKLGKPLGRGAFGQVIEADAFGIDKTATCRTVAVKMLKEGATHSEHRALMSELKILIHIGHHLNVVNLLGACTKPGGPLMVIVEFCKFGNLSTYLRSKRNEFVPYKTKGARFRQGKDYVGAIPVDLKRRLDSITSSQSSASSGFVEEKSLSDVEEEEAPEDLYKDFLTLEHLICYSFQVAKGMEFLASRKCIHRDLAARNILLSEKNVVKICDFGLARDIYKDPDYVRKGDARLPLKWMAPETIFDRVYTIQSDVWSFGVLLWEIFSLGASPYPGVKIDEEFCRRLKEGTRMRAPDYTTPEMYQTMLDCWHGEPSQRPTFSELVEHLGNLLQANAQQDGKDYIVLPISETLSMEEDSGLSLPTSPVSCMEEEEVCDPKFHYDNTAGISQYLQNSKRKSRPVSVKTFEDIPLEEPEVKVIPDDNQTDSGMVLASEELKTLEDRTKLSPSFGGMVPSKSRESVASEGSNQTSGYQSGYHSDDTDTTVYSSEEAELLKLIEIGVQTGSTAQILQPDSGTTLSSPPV
measured-quantity: pIC50
Value format note: pIC50 is -log10 of concentration (mol/L); just state the number.

**Query** Entry COc1cc2c(Oc3ccc(N=Cc4c(C)[nH]n(-c5ccccc5C(F)(F)F)c4=O)cc3F)ccnc2cc1OCCCN1CCOCC1 has what pIC50?
**Result** 6.49

All figures here come from BindingDB's records for doi:10.1016/j.bioorg.2014.07.011.
